System: TRPC4 (mouse), co-expressed with 5HT1a in HEK293
experiment: enhancement of serotonin-evoked TRPC4 response – cell-based, second counter screen, HEK293 TRPC4/5HT1a, Fluo-4, counter-screen for TRPC4 potentiator project, confirmation (AID 434979)
experimental.parameters: Fluo-4 calcium flux, at 10 µM, serotonin added at its EC20 dose
Calls of active or inactive are those of the source.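 Rule for the calls: active = signal rise over 3 SD above mean of control wells given weak agonist, in both repeats and first screen; inactive = the rest.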
reported.endpoint: potentiation

NS(=O)(=O)c1ccc(Oc2ccc(S(N)(=O)=O)cc2)cc1    inactive
C=CCc1ccccc1OCC(CN1CCCCC1)OC(C)=O (stereo not drawn)    inactive
FC(F)Oc1ccccc1NC(=S)Nc1cccc(Cl)c1Cl    inactive
